study.system: T1, cynomolgus PD-L1-Fc (SinoBiological) (cynomolgus, UniProt G7PSE7 19-238)
T1 construct: Bought; also called Cyno PD-L1; not shown: Fc carrier (and any linker) of the bought SinoBiological fusion
T1 sequence (G7PSE7 entry or part of it limits assumed): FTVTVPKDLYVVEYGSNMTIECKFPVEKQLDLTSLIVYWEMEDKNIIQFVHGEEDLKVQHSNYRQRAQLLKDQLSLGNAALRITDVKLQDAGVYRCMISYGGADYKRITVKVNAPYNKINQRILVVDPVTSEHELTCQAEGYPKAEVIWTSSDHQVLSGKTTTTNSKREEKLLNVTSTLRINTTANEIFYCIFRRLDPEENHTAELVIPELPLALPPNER
method: BLI (Octet RED96), VHH on Penta-HIS sensor, cynomolgus PD-L1-Fc in solution
result.type: Kd (nM)
Give the quantity in nM, number only.

Ask | Identify measured Kd associated with 2LIG176 VHH-(His)6 (pHEN6C-PelB-PD-L1 VHH-(His)6) (VHH) VHH: QVQLQESGGGLVQAGGSLRLSCAASESIFSIEAMGWYRQAPGKQRELVAAIFGGGFTNYADSVKGRFTISRDNANRTVYLQMNSLKPEDTAVYYCNADLVSGSSRLYDYWGQGTQVTVSS
Reply | 11.3

Ask | Identify measured Kd associated with 2LIG189 VHH-(His)6 (pHEN6C-PelB-PD-L1 VHH-(His)6) (VHH) VHH: QVQLQESGGGLVQAGGSLRLSCAASGKIFSGNDMGWYRQAPGKQRELVGIITSGGITDYADAVKGRFTISRDNAKNMMYLQMNSLKPEDTAVYYCNMRDRTIWWGQGTQVTVSS
Reply | 3.8

Ask | Identify measured Kd associated with 2LIG27 VHH-(His)6 (pHEN6C-PelB-PD-L1 VHH-(His)6) (VHH) VHH: QVQLQESGGGVVQAGGSLRLSCTASGTIFSINRMDWFRQAPGKQRELVALITSDGTPTYADSAKGRFTISRDNTKKTVSLQMNSLKPEDTAVYYCHVSSGVYNYWGQGTQVTVSS
Reply | 8.74

Ask | Identify measured Kd associated with 2LIG3 VHH-(His)6 (pHEN6C-PelB-PD-L1 VHH-(His)6) (VHH) VHH: QVQLQESGGGLVQAGGSLRLSCTASGTIFSINHMDWFRQAPGKQRELVALITSDGFPTYADSAKGRFTISRDNTKKTVSLQMNSLKPEDTAVYYCHVSSGVYNYWGQGTQVTVSS
Reply | 0.89

Ask | Identify measured Kd associated with 2LIG99 VHH-(His)6 (pHEN6C-PelB-PD-L1 VHH-(His)6) (VHH) VHH: QVQLQESGGGLVQAGGSLRLSCTASGTIFSINRMDWFRQAPGKQRELVALITSDGTPAYADSAKGRFTISRDNTKKTVSLQMNSLKPEDTAVYYCHVSSGVYNYWGQGTQVTVSS
Reply | 1.01

Ask | Identify measured Kd associated with 3LIG8 VHH-(His)6 (pHEN6C-PelB-PD-L1 VHH-(His)6) (VHH) VHH: QVQLQESGGGLVQPGGSLRLSCTASGTIFSINRMDWFRQAPGKQRELVALITSDGTPTYADSAKGRFTISRDNTKKTVSLQMNSLKPEDTAVYYCHVSSGVYNYWGQGTQVTVSS
Reply | 5.98

---
Ask | Identify measured Kd associated with 2LIG97 VHH-(His)6 (pHEN6C-PelB-PD-L1 VHH-(His)6) (VHH) VHH: QVQLQESGGGLVQAGESLRLSCTASGTIFSINRMDWFRQAPGKQRELVALITSDGTPTYADSAKGRFTISRDNTKKTVSLQMNSLKPEDTAVYYCHVSSGVYNYWGQGTQVTVSS
Reply | 9.16

Origin of measurements: patent US20250361305A1
